Where do these numbers come from? They come from PubChem BioAssay AID1508600.

- testSummary: Components of the Cytosolic LPS Sensing Pathway: Gene Identification via Genome-wide siRNA Screen;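 further: robust z of the log signal after scaling to non-targeting control siRNA wells of the plate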
- settings: RAW264.7 macrophages, IL-1a HTRF, actives lie on both sides, screened at 100 nM (by protocol), cells primed 5 h with Pam3CSK4 first
- Description: Non-canonical inflammasome activation by cytosolic LPS is a critical component of the host response to Gram-negative bacterial infection, however we lack a comprehensive understanding of the cellular processes that control this pathway. […] Lipofectamine RNAiMAX Transfection Reagent ([…]; Invitrogen) was added in […] serum-free, antibiotic-free media to plate wells using a Thermo Scientific Matrix WellMate and Microplate Stacker. […] The plates were read on an EnVision plate reader (PerkinElmer). […]
The campaign covered roughly 53,000 sequences. About 3,700 (7%) were called active.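 How the source made its calls: active means gene knockdowns whose robust z-score for IL-1 alpha signal is at least 2 or at most -2, so actives lie on both sides; inactive means the rest.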 Many of the other results were omitted from the sample, so actives are more common in it than they were.
Give your call using only these classes: 1 (active), 0 (inactive)

Check out these entries, answers already filled in.
{"querySequence": "GGUGAACCUGGAAGAACUATT against Manea", "cat": 0}
{"querySequence": "GGAGAAAAGCUGUAUACACTT against Tmem177", "cat": 0}
{"querySequence": "CCAUAGAGUGGAUAGUCAUTT against Rsl1", "cat": 0}
{"querySequence": "CCUUCAUUCUCAUGUGACCTT against Psat1", "cat": 0}
{"querySequence": "CCAUCAUGAACACUCAACATT against Olfr462", "cat": 1}

Now let's try a different one.
Recorded test outcome, item GGUUCACGGGUUCUAAGAUTT against Eif1b
1
